assay.target: full-length beta-Catenin (Uniprot ID P35222) (Homo sapiens, UniProt P35222)
Construct: 10 nM full-length beta-Catenin (Uniprot ID P35222)
Sequence (P35222 whole entry): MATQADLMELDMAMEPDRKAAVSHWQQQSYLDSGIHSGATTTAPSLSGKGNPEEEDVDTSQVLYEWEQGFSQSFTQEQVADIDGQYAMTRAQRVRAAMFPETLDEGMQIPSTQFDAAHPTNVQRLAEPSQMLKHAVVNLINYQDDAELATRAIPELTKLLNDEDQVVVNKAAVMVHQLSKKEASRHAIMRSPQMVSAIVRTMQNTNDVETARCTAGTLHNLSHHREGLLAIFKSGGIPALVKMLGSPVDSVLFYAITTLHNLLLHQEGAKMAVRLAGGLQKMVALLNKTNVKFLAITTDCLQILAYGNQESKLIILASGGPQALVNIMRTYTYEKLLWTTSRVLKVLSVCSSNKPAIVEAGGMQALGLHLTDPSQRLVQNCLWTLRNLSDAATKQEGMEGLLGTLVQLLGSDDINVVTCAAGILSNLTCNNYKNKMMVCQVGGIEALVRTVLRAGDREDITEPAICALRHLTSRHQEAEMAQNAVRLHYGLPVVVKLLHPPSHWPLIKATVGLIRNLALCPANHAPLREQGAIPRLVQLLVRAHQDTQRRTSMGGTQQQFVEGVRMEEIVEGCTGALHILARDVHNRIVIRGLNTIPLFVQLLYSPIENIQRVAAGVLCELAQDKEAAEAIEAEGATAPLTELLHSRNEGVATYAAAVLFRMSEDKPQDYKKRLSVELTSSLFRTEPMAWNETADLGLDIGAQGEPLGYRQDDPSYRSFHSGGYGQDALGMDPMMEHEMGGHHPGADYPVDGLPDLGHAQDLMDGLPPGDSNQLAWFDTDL
experimental.details: Fluorescence polarization IC50 (beta-catenin / 5FAM-TCF4 10-53 competition)
Assay type: binding
experimental.parameters: fluorescence polarization; read-out: beta-Catenin FP IC50
In this section, each of the compounds is paired with its reported IC50.

# compound, IC50
measured = [
    ("CC(=O)N1CCC[C@]12CC=CCCCC1(CCCC=CCCCOC(=O)N3CC[C@@](C(=O)N[C@@H](Cc4ccsc4)C(=O)N[C@@H](Cc4csc5ccccc45)C(=O)N[C@@H](CCC(N)=O)C(N)=O)(C3)NC(=O)[C@H](CC(C)C)NC(=O)[C@H](Cc3ccccc3)NC(=O)C(C)(C)NC(=O)C(C)(C)NC(=O)[C@H](CC(=O)O)NC(=O)[C@H](CC(=O)O)NC1=O)NC(=O)[C@H](CC(C)(C)C)NC(=O)[C@H](CC(=O)O)NC2=O (stereo partly drawn) [I-1180]", "87 nM"),
]

Query: Form field - read-out: IC50; system: full-length beta-Catenin (Uniprot ID P35222) (Homo sapiens, UniProt P35222); submitted item: CC[C@H](C)[C@@H]1NC(=O)[C@H](CC(=O)O)NC(=O)[C@]2(CC=CCCCC3(CCCC=CCCCCCC[C@@](C)(C(=O)N[C@@H](Cc4ccccc4)C(=O)N[C@@H](Cc4csc5ccccc45)C(N)=O)NC(=O)[C@H](CCC(N)=O)NC(=O)[C@H](Cc4ccccc4)NC(=O)[C@H](C)NC(=O)[C@H](C)NC(=O)[C@H](CCC(=O)O)NC(=O)[C@H](CC(=O)O)NC3=O)NC1=O)CCCN2C(C)=O (stereo partly drawn) [I-408]
Reply: 120 nM

Query: Continue with CC(=O)N1CCC[C@]12CC=CCCCC1(CCCC=CCCCOC(=O)N3CC[C@@](C(=O)N[C@@H](Cc4ccsc4)C(=O)N[C@@H](Cc4csc5ccccc45)C(=O)N[C@@H](C)C(N)=O)(C3)NC(=O)[C@H](CC(N)=O)NC(=O)[C@H](Cc3ccccc3)NC(=O)[C@H](C)NC(=O)[C@H](C)NC(=O)[C@H]([C@@H](C)O)NC(=O)[C@H](CC(N)=O)NC1=O)NC(=O)[C@H](CC(C)(C)C)NC(=O)[C@H](CC(=O)O)NC2=O (stereo partly drawn) [I-2142]
Reply: 271 nM

Query: Try the compound CC(=O)N1CCC[C@]12CC=CCCCC1(CCCC=CCCCOC(=O)N3CC[C@@](C(=O)N[C@@H](Cc4ccsc4)C(=O)N[C@H](C(=O)N[C@@H](C)C(N)=O)[C@@H](C)c4ccc5ccccc5c4)(C3)NC(=O)[C@H](C(C)C)NC(=O)[C@H](Cc3ccccc3)NC(=O)[C@H](C)NC(=O)[C@H](CCC(N)=O)NC(=O)[C@H](Cc3cccc(C(=O)O)c3)NC(=O)[C@H](CC(=O)O)NC1=O)NC(=O)[C@H](CC(C)(C)C)NC(=O)[C@H](CC(=O)O)NC2=O (stereo partly drawn)
Reply: 48 nM

Query: How about CC(=O)N1CCC[C@]12CC=CCCCC1(CCCC=CCCCOC(=O)N3CC[C@@](C(=O)N[C@@H](Cc4ccsc4)C(=O)N[C@@H](Cc4csc5ccccc45)C(=O)N[C@@H](CCC(N)=O)C(N)=O)(C3)NC(=O)[C@H](CC(N)=O)NC(=O)[C@H](Cc3ccccc3)NC(=O)[C@H](C)NC(=O)[C@H](C)NC(=O)[C@H](CC(=O)O)NC(=O)[C@H](CC(=O)O)NC1=O)NC(=O)[C@H](CC(C)(C)C)NC(=O)[C@H](CCO)NC2=O (stereo partly drawn) ?
Reply: 100 nM

Query: Next: CC(=O)N1CCC[C@]12CC=CCCCC1(CCCC=CCCCOC(=O)N3CC[C@@](C(=O)N[C@@H](Cc4ccsc4)C(=O)N[C@@H](Cc4csc5ccccc45)C(=O)N[C@@H](CCC(N)=O)C(N)=O)(C3)NC(=O)[C@H](CC(C)C)NC(=O)[C@H](Cc3ccccc3)NC(=O)[C@H](C)NC(=O)[C@H](C)NC(=O)[C@H](CCN(CC(=O)O)C(=O)c3ccccn3)NC(=O)[C@H](CC(=O)O)NC1=O)NC(=O)[C@H](CC(C)(C)C)NC(=O)[C@H](CC(=O)O)NC2=O (stereo partly drawn)
Reply: 8 nM

Query: Let us now turn to CC(=O)N1CCC[C@]12CC=CCCCC1(CCCC=CCCCOC(=O)N3CC[C@@](C(=O)N[C@@H](Cc4ccccc4C(F)(F)F)C(=O)N[C@@H](Cc4csc5ccccc45)C(=O)N[C@H](CCC(N)=O)C(N)=O)(C3)NC(=O)[C@H](Cc3ccccc3)NC(=O)[C@H](Cc3ccccc3)NC(=O)[C@H](C)NC(=O)[C@H](C)NC(=O)[C@H](Cc3cccc(C(=O)O)c3)NC(=O)[C@H](CC(=O)O)NC1=O)NC(=O)[C@H](CC(C)(C)C)NC(=O)[C@H](CC(=O)O)NC2=O (stereo partly drawn)
Reply: 43 nM

Query: And for CC(=O)N1CCC[C@]12CC=CCCCC1(CCCC=CCCCOC(=O)N3CC[C@@](C(=O)N[C@@H](Cc4ccccc4)C(=O)N[C@@H](Cc4csc5ccccc45)C(=O)N[C@@H](CCCCN)C(N)=O)(C3)NC(=O)[C@H](CC(C)C)NC(=O)[C@H](Cc3ccccc3)NC(=O)[C@H](C)NC(=O)[C@H](CCC(N)=O)NC(=O)[C@H](CCC(N)=O)NC(=O)[C@H](CC(=O)O)NC1=O)NC(=O)[C@H](CC1CCCCC1)NC(=O)[C@H](CC(N)=O)NC2=O (stereo partly drawn) ?
Reply: 145 nM

Query: Please do the same for CC(=O)N1CCC[C@]12CC=CCCCC1(CCCC=CCCCOC(=O)N3CC[C@@](C(=O)N[C@@H](Cc4ccccc4)C(=O)N[C@@H](Cc4csc5ccccc45)C(=O)N[C@@H](CCCCN)C(N)=O)(C3)NC(=O)[C@H](CC(C)C)NC(=O)[C@H](Cc3ccccc3)NC(=O)[C@H](C)NC(=O)[C@H](CC(N)=O)NC(=O)[C@H](CCC(N)=O)NC(=O)[C@H](CC(=O)O)NC1=O)NC(=O)[C@H](CC1CCCCC1)NC(=O)[C@H](CC(N)=O)NC2=O (stereo partly drawn) as well.
Reply: 2120 nM
